Where these numbers come from: patent EP4603105A1

Property: pIC50; scope: individual compounds
Test system: human lung cancer strain NCI-H441
Type: cell-based
Where a SMILES comes first, the peptide text is derived from it. Bridges are numbered along the chain shown (N, C = ends). [ ]: non-standard residue; d: D form. The star is where a group is joined. hPhe(3-Cl-4-CF3) = N[C@@H](CCc1ccc(C(F)(F)F)c(Cl)c1)C(=O)O; NPrPhe(4-CF3) = CCCN[C@@H](Cc1ccc(C(F)(F)F)cc1)C(=O)O; NMeGly(cPent) = CN[C@H](C(=O)O)C1CCCC1; Ac4c(3,3-Me2) = CC1(C)CC(N)(C(=O)O)C1; NMeD = CN[C@@H](CC(=O)O)C(=O)O; NMeL = CN[C@@H](CC(C)C)C(=O)O; Morpholide = C1CN(*)CCO1; Ac5c = NC1(C(=O)O)CCCC1; Sar = CNCC(=O)O; Propyl = CCC*
Please keep in mind that pIC50 is minus log10 of the molar concentration; only the number is needed.

Measured pIC50 for this entry CCC[C@H]1C(=O)N[C@@H]([C@@H](C)CC)C(=O)N(CCC)CC(=O)N(C)[C@H]2C/C=C\CCN(C2=O)[C@@H](Cc2ccc(C)cc2)C(=O)N(C)CC(=O)N[C@@H](CCc2ccc(C(F)(F)F)c(OC)c2)C(=O)N2C[C@H](OCC)C[C@H]2C(=O)NC2(CC(C)(C)C2)C(=O)N(C)[C@@H](C2CCCC2)C(=O)N(C)[C@H](C(=O)N(C)C)CC(=O)N1C on human lung cancer strain NCI-H441: 8.07

Measured pIC50 for this entry CCC[C@H]1C(=O)N[C@@H]([C@@H](C)CC)C(=O)N(C)CC(=O)N(C)[C@H]2C/C=C\CCN(C2=O)[C@@H](Cc2ccc(C)cc2)C(=O)N(C)CC(=O)N[C@@H](CCc2cc(F)c(C(F)(F)F)c(F)c2)C(=O)N2C[C@H](OCC)C[C@H]2C(=O)NC2(CC(C)(C)C2)C(=O)N(C)[C@@H](C(CC)CC)C(=O)N(C)[C@H](C(=O)N(C)C)CC(=O)N1C on human lung cancer strain NCI-H441: 7.87

New cases:
Measured pIC50 for this entry C#CC[C@H]1C(=O)N[C@@H]([C@@H](C)CC)C(=O)N(C)CC(=O)N(C)[C@H]2C/C=C\CCN(C2=O)[C@@H](Cc2ccc(C)cc2)C(=O)N(C)CC(=O)N[C@@H](CCc2cc(F)c(C(F)(F)F)c(F)c2)C(=O)N2CC3(CC3)C[C@H]2C(=O)NC2(CC(C)(C)C2)C(=O)N(C)[C@@H](C2CCCC2)C(=O)N(C)[C@H](C(=O)N(C)C)CC(=O)N1C on human lung cancer strain NCI-H441: 8.23

Measured pIC50 for this entry CCCN1C(=O)CN(C)C(=O)[C@H](C)NC(=O)[C@H]([C@@H](C)CC)NC(=O)[C@H](CC(C)C)N(C)C(=O)C[C@@H](C(=O)N2CCOCC2)N(C)C(=O)[C@H](C2CCCC2)N(C)C(=O)C2(CCCC2)NC(=O)[C@@H]2CCCN2C(=O)[C@H](CCc2ccc(C(F)(F)F)c(Cl)c2)NC(=O)CN(C)C(=O)[C@@H]1Cc1ccc(C(F)(F)F)cc1 [PP1971] ([NMeL]IA[Sar][NPrPhe(4-CF3)][Sar][hPhe(3-Cl-4-CF3)]P[Ac5c][NMeGly(cPent)][NMeD]-Morpholide; lactam N-11) on human lung cancer strain NCI-H441: 7.42

Measured pIC50 for this entry CCO[C@@H]1C[C@H]2C(=O)NC3(CCC3)C(=O)N(C)[C@@H](C3CCCC3)C(=O)N(CCC3CCCC3)[C@H](C(=O)N(C)C)CC(=O)N(C)[C@@H](CC)C(=O)N[C@@H]([C@@H](C)CC)C(=O)N(C)CC(=O)N(C)[C@H]3CCCCCN(C3=O)[C@@H](Cc3ccc(C(F)(F)F)cc3)C(=O)N(C)CC(=O)N[C@@H](CCc3cc(F)c(C(F)(F)F)c(F)c3)C(=O)N2C1 on human lung cancer strain NCI-H441: 6.14

Measured pIC50 for this entry CCCO[C@H](C)[C@@H]1NC(=O)[C@H](CC(C)C)N(C)C(=O)C[C@@H](C(=O)N2CCOCC2)N(C)C(=O)[C@H](C2CCCC2)N(C)C(=O)C2(CC(C)(C)C2)NC(=O)[C@@H]2CCCN2C(=O)[C@H](CCc2ccc(C(F)(F)F)c(Cl)c2)NC(=O)CN(C)C(=O)[C@H](Cc2ccc(C(F)(F)F)cc2)N(CCC)C(=O)CN(C)C(=O)CN(C)C1=O [PP1965] ([NMeL]T(Propyl)[Sar][Sar][NPrPhe(4-CF3)][Sar][hPhe(3-Cl-4-CF3)]P[Ac4c(3,3-Me2)][NMeGly(cPent)][NMeD]-Morpholide; lactam N-11) on human lung cancer strain NCI-H441: 7.76

Measured pIC50 for this entry CCO[C@@H]1C[C@H]2C(=O)NC3(CC(C)(C)C3)C(=O)N(C)[C@@H](C(CC)CC)C(=O)N(C)[C@H](C(=O)N(C)C)CC(=O)N(C)[C@@H](CC)C(=O)N[C@@H]([C@@H](C)CC)C(=O)N(C)CC(=O)N(C)[C@H]3C/C=C\CCN(C3=O)[C@@H](Cc3ccc(C)cc3)C(=O)N(C)CC(=O)N[C@@H](CCc3ccc(Cl)c(Cl)c3)C(=O)N2C1 on human lung cancer strain NCI-H441: 7.57

====

measurementTarget: UniProt P01116
Sequence (P01116 1-188 isoform P01116-2): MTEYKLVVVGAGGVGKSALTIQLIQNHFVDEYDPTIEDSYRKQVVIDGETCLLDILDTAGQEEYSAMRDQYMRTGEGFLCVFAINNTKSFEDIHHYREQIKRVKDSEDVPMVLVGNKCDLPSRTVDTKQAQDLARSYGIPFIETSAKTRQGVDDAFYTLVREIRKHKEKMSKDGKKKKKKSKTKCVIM
measurementNotes: Binding to KRAS by surface plasmon resonance (SPR), dissociation constant KD
measurementParameters: 1:1 binding model
property: pKd
Please keep in mind that pKd is minus log10 of the molar concentration; only the number is needed.

Worked examples follow.
pKd recorded for this molecule, CCOC[C@H]1C(=O)N[C@@H]([C@@H](C)CC)C(=O)N(C)CC(=O)N(C)[C@H]2C/C=C\CCN(C2=O)[C@@H](CC2CCC(F)(F)CC2)C(=O)N(C)CC(=O)N[C@@H](CCc2ccc(C(F)(F)F)c(Cl)c2)C(=O)N2C[C@H](OCC)C[C@H]2C(=O)NC2(CC(C)(C)C2)C(=O)N(C)[C@@H](C(CC)CC)C(=O)N(C)[C@H](C(=O)N(C)C)CC(=O)N1C , is 9.15

pKd recorded for this molecule, C#CC[C@H]1C(=O)N[C@@H]([C@@H](C)CC)C(=O)N(C)CC(=O)N(C)[C@H]2C/C=C\CCN(C2=O)[C@@H](Cc2ccc(C(F)(F)F)cc2)C(=O)N(C)CC(=O)N[C@@H](CCc2ccc(C(F)(F)F)c(OC)c2)C(=O)N2C[C@H](C)[C@H]2C(=O)NC2(CCC2)C(=O)N(C)[C@@H](C2CCCC2)C(=O)N(C)[C@H](C(=O)N2CCOCC2)CC(=O)N1C , is 8.96

Please examine the following record next.
pKd recorded for this molecule, CCCO[C@H](C)[C@@H]1NC(=O)[C@H](COCC)N(C)C(=O)C[C@@H](C(=O)N(C)CC)N(C)C(=O)[C@H](C2CCCC2)N(C)C(=O)C2(CC(C)(C)C2)NC(=O)[C@@H]2C[C@@H](OCC)CN2C(=O)[C@H](CCc2cc(F)c(C(F)(F)F)c(F)c2)NC(=O)CN(C)C(=O)[C@H](Cc2ccc(C)cc2)N2CC/C=C\C[C@@H](C2=O)N(C)C(=O)[C@@H]2CCCN2C1=O , is 8.80

====

Property: IC50; scope: individual compounds
Tested on: human lung cancer strain NCI-H441
measurementNotes: NCI-H441 cell proliferation inhibitory activity (CellTiter-Glo, 4 days)
Assay type: cell-based
measurementParameters: NCI-H441 cells, 4 days, read-out: NCl-H441 IC50
Return type: number; implicit unit nM.

IC50 recorded for this compound, CCC[C@H]1C(=O)N[C@@H]([C@@H](C)CC)C(=O)N(C)CC(=O)N(C)[C@H]2C/C=C\CCN(C2=O)[C@@H](Cc2ccc(C)cc2)C(=O)N(C)CC(=O)N[C@@H](CCc2ccc(C(F)(F)F)c(Cl)c2)C(=O)N2CC3(CC3)C[C@H]2C(=O)NC2(CCC2)C(=O)N(C)[C@@H](C(CC)CC)C(=O)N(C)[C@H](C(=O)N(C)C)CC(=O)N1C , is 27.2

IC50 recorded for this compound, CCCO[C@H](C)[C@@H]1NC(=O)[C@H](COCC)N(C)C(=O)C[C@@H](C(=O)N(C)CC)N(C)C(=O)[C@H](C2CCCC2)N(C)C(=O)C2(CC(C)(C)C2)NC(=O)[C@@H]2C[C@H](C)CN2C(=O)[C@H](CCc2cc(F)c(C(F)(F)F)c(F)c2)NC(=O)CN(C)C(=O)[C@H](Cc2ccc(C)cc2)N2CC/C=C\C[C@@H](C2=O)N(C)C(=O)CN(C)C1=O , is 48

IC50 recorded for this compound, CCC[C@H]1C(=O)N[C@@H]([C@@H](C)CC)C(=O)N2CCC[C@H]2C(=O)N(C)[C@H]2C/C=C\CCN(C2=O)[C@@H](Cc2ccc(C)cc2)C(=O)N(C)CC(=O)N[C@@H](CCc2cc(F)c(C(F)(F)F)c(F)c2)C(=O)N2CC[C@H](OC)[C@H]2C(=O)N(C)C2(CCC2)C(=O)N(C)[C@@H](C2CCCC2)C(=O)N(C)[C@H](C(=O)N(C)C)CC(=O)N1C , is 11.4
